// values below are reported self-splicing fitness (ln)
- method: self-splicing fitness, log relative to wild type (ln ratio); higher = more splicing; Tetrahymena group I intron in knt gene, E. coli kanamycin selection, DiMSum; sequences stand for … in CUCUCU…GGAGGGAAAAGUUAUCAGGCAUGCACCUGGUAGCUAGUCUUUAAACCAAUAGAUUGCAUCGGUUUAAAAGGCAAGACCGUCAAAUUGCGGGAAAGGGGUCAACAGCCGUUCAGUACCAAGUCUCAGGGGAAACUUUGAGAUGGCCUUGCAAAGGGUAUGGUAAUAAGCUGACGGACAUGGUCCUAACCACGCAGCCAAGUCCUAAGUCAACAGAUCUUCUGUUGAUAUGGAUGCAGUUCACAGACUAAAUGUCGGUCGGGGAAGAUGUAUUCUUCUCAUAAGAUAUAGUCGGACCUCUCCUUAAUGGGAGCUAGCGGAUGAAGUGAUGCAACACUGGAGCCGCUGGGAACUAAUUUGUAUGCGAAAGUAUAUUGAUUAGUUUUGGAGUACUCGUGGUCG;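 further: selection with 25 µg/mL kanamycin versus none on LB agar overnight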
- condition: 30 °C
quantity_name: self-splicing fitness (ln)

biopolymer_sequence: AAUAAGCAAUAUUACGAUCU
quantity_name: self-splicing fitness (ln)
value_measured: 0.041
--
biopolymer_sequence: GUAGAGCAAUAUUACGUGUU
quantity_name: self-splicing fitness (ln)
value_measured: -3.68
--
biopolymer_sequence: GCUCAGCAAUAUUACGGGAU
quantity_name: self-splicing fitness (ln)
value_measured: -1.16
--
biopolymer_sequence: UCCAAGCAAUAUUACGUGAA
quantity_name: self-splicing fitness (ln)
value_measured: -0.666
--
biopolymer_sequence: UUGUAGCAAUAUUACGGGAC
quantity_name: self-splicing fitness (ln)
value_measured: -0.759
--
biopolymer_sequence: CGCUAGCAAUAUUACGGCGC
quantity_name: self-splicing fitness (ln)
value_measured: -1.1
--
biopolymer_sequence: UAGCAGCAAUAUUACGGGCU
quantity_name: self-splicing fitness (ln)
value_measured: -3.39
--
biopolymer_sequence: CGUCAGCAAUAUUACGCACA
quantity_name: self-splicing fitness (ln)
value_measured: -0.869
--
biopolymer_sequence: CUGUAGCAAUAUUACGUUAC
quantity_name: self-splicing fitness (ln)
value_measured: -2.77
--
biopolymer_sequence: AUUCAGCAAUAUUACGAACG
quantity_name: self-splicing fitness (ln)
value_measured: -0.206
--
biopolymer_sequence: CGGUAGCAAUAUUACGGAGU
quantity_name: self-splicing fitness (ln)
value_measured: -3.33
--
biopolymer_sequence: UAUCAGCAAUAUUACGGGUG
quantity_name: self-splicing fitness (ln)
value_measured: -0.736
--
biopolymer_sequence: UAAGAGCAAUAUUACGGCGC
quantity_name: self-splicing fitness (ln)
value_measured: -2.68
--
biopolymer_sequence: GAAAAGCAAUAUUACGUACG
quantity_name: self-splicing fitness (ln)
value_measured: -1.16
--
biopolymer_sequence: AAGAAGCAAUAUUACGACCU
quantity_name: self-splicing fitness (ln)
value_measured: 0.116
--
biopolymer_sequence: UUUAAGCAAUAUUACGCACG
quantity_name: self-splicing fitness (ln)
value_measured: -0.565
--
biopolymer_sequence: GUGUAGCAAUAUUACGUCAA
quantity_name: self-splicing fitness (ln)
value_measured: -1.16
--
biopolymer_sequence: GAAAAGCAAUAUUACGUAUC
quantity_name: self-splicing fitness (ln)
value_measured: -3.9
--
biopolymer_sequence: GUAAAGCAAUAUUACGGCCU
quantity_name: self-splicing fitness (ln)
value_measured: -0.0192
--
biopolymer_sequence: AGUGAGCAAUAUUACGCACG
quantity_name: self-splicing fitness (ln)
value_measured: -1.58
--
biopolymer_sequence: GAAUAGCAAUAUUACGCCGU
quantity_name: self-splicing fitness (ln)
value_measured: -1.6
--
biopolymer_sequence: GCCCAGCAAUAUUACGCAUG
quantity_name: self-splicing fitness (ln)
value_measured: -3.92
--
biopolymer_sequence: GGAGAGCAAUAUUACGGGAA
quantity_name: self-splicing fitness (ln)
value_measured: -2.58
--
biopolymer_sequence: CCGUAGCAAUAUUACGGUUG
quantity_name: self-splicing fitness (ln)
value_measured: -3.89
--
biopolymer_sequence: GCCUAGCAAUAUUACGAGUU
quantity_name: self-splicing fitness (ln)
value_measured: -1.58
--
biopolymer_sequence: AGUAAGCAAUAUUACGGCUA
quantity_name: self-splicing fitness (ln)
value_measured: 0.0253
--
biopolymer_sequence: AUGUAGCAAUAUUACGCUGA
quantity_name: self-splicing fitness (ln)
value_measured: -1.93
--
biopolymer_sequence: AGGCAGCAAUAUUACGGCUA
quantity_name: self-splicing fitness (ln)
value_measured: -0.132
--
biopolymer_sequence: UUAUAGCAAUAUUACGCAAU
quantity_name: self-splicing fitness (ln)
value_measured: -2.86
--
biopolymer_sequence: AUUCAGCAAUAUUACGGAUC
quantity_name: self-splicing fitness (ln)
value_measured: -3.24
--
biopolymer_sequence: UUUUAGCAAUAUUACGAUCA
quantity_name: self-splicing fitness (ln)
value_measured: -0.641
--
biopolymer_sequence: CAUAAGCAAUAUUACGUGAC
quantity_name: self-splicing fitness (ln)
value_measured: -2.48
--
biopolymer_sequence: GUUAAGCAAUAUUACGCGGA
quantity_name: self-splicing fitness (ln)
value_measured: -0.996
--
biopolymer_sequence: AAGAAGCAAUAUUACGUAAG
quantity_name: self-splicing fitness (ln)
value_measured: -1.37
--
biopolymer_sequence: ACCAAGCAAUAUUACGCUGU
quantity_name: self-splicing fitness (ln)
value_measured: -1.61
--
biopolymer_sequence: UUUAAGCAAUAUUACGUGCC
quantity_name: self-splicing fitness (ln)
value_measured: -1.95
--
biopolymer_sequence: CCACAGCAAUAUUACGACUC
quantity_name: self-splicing fitness (ln)
value_measured: -2.46
--
biopolymer_sequence: GAACAGCAAUAUUACGGUAG
quantity_name: self-splicing fitness (ln)
value_measured: -2.81
--
biopolymer_sequence: ACAUAGCAAUAUUACGGAAG
quantity_name: self-splicing fitness (ln)
value_measured: -3.57
--
biopolymer_sequence: AAGAAGCAAUAUUACGCUGG
quantity_name: self-splicing fitness (ln)
value_measured: -2.37
--
biopolymer_sequence: GCAUAGCAAUAUUACGGGUC
quantity_name: self-splicing fitness (ln)
value_measured: -3.17
--
biopolymer_sequence: ACUAAGCAAUAUUACGUGGU
quantity_name: self-splicing fitness (ln)
value_measured: -3.41
--
biopolymer_sequence: AUAGAGCAAUAUUACGGGAG
quantity_name: self-splicing fitness (ln)
value_measured: -4.25
--
biopolymer_sequence: UAGAAGCAAUAUUACGUGCU
quantity_name: self-splicing fitness (ln)
value_measured: -2.8
--
biopolymer_sequence: UUUCAGCAAUAUUACGCCUA
quantity_name: self-splicing fitness (ln)
value_measured: -0.129
--
biopolymer_sequence: GACGAGCAAUAUUACGUGUU
quantity_name: self-splicing fitness (ln)
value_measured: -3.18
--
biopolymer_sequence: CCGCAGCAAUAUUACGACUA
quantity_name: self-splicing fitness (ln)
value_measured: -3.8
--
biopolymer_sequence: CAUAAGCAAUAUUACGCUCU
quantity_name: self-splicing fitness (ln)
value_measured: -2.58
--
biopolymer_sequence: CUGGAGCAAUAUUACGCUCA
quantity_name: self-splicing fitness (ln)
value_measured: -3.4
--
biopolymer_sequence: AUGUAGCAAUAUUACGCCCC
quantity_name: self-splicing fitness (ln)
value_measured: -0.236
--
biopolymer_sequence: CUCGAGCAAUAUUACGGUAA
quantity_name: self-splicing fitness (ln)
value_measured: -3.49
--
biopolymer_sequence: ACCCAGCAAUAUUACGUGGU
quantity_name: self-splicing fitness (ln)
value_measured: -3.89
--
biopolymer_sequence: AAGUAGCAAUAUUACGACAC
quantity_name: self-splicing fitness (ln)
value_measured: -0.538
--
biopolymer_sequence: GUGCAGCAAUAUUACGACCG
quantity_name: self-splicing fitness (ln)
value_measured: -2.18
--
biopolymer_sequence: UGCUAGCAAUAUUACGUCGU
quantity_name: self-splicing fitness (ln)
value_measured: -2.15
--
biopolymer_sequence: AUUGAGCAAUAUUACGGCGG
quantity_name: self-splicing fitness (ln)
value_measured: -3.01
--
biopolymer_sequence: AGGUAGCAAUAUUACGCUGC
quantity_name: self-splicing fitness (ln)
value_measured: -3.88
--
biopolymer_sequence: AAGCAGCAAUAUUACGAAGC
quantity_name: self-splicing fitness (ln)
value_measured: -3.33
--
biopolymer_sequence: AGCUAGCAAUAUUACGAUGG
quantity_name: self-splicing fitness (ln)
value_measured: -3.87
--
biopolymer_sequence: CCUCAGCAAUAUUACGUCCA
quantity_name: self-splicing fitness (ln)
value_measured: -2.26
--
biopolymer_sequence: AACAAGCAAUAUUACGACUA
quantity_name: self-splicing fitness (ln)
value_measured: -0.0433
--
biopolymer_sequence: AAUAAGCAAUAUUACGUCCC
quantity_name: self-splicing fitness (ln)
value_measured: -0.502
--
biopolymer_sequence: CUAAAGCAAUAUUACGACUC
quantity_name: self-splicing fitness (ln)
value_measured: -4.65
--
biopolymer_sequence: CCCAAGCAAUAUUACGCUCU
quantity_name: self-splicing fitness (ln)
value_measured: -3.91
--
biopolymer_sequence: GUAUAGCAAUAUUACGUACU
quantity_name: self-splicing fitness (ln)
value_measured: -3.8
--
biopolymer_sequence: ACUCAGCAAUAUUACGUAGU
quantity_name: self-splicing fitness (ln)
value_measured: -2.86
--
biopolymer_sequence: UGAGAGCAAUAUUACGGGUG
quantity_name: self-splicing fitness (ln)
value_measured: -3.65
